Where do the numbers come from? From patent US11214565B2.

Test target: LRRK2 G2019S enzyme (Homo sapiens (Human), UniProt Q5S007, G2019S)
Sequence (Q5S007 whole entry G2019S): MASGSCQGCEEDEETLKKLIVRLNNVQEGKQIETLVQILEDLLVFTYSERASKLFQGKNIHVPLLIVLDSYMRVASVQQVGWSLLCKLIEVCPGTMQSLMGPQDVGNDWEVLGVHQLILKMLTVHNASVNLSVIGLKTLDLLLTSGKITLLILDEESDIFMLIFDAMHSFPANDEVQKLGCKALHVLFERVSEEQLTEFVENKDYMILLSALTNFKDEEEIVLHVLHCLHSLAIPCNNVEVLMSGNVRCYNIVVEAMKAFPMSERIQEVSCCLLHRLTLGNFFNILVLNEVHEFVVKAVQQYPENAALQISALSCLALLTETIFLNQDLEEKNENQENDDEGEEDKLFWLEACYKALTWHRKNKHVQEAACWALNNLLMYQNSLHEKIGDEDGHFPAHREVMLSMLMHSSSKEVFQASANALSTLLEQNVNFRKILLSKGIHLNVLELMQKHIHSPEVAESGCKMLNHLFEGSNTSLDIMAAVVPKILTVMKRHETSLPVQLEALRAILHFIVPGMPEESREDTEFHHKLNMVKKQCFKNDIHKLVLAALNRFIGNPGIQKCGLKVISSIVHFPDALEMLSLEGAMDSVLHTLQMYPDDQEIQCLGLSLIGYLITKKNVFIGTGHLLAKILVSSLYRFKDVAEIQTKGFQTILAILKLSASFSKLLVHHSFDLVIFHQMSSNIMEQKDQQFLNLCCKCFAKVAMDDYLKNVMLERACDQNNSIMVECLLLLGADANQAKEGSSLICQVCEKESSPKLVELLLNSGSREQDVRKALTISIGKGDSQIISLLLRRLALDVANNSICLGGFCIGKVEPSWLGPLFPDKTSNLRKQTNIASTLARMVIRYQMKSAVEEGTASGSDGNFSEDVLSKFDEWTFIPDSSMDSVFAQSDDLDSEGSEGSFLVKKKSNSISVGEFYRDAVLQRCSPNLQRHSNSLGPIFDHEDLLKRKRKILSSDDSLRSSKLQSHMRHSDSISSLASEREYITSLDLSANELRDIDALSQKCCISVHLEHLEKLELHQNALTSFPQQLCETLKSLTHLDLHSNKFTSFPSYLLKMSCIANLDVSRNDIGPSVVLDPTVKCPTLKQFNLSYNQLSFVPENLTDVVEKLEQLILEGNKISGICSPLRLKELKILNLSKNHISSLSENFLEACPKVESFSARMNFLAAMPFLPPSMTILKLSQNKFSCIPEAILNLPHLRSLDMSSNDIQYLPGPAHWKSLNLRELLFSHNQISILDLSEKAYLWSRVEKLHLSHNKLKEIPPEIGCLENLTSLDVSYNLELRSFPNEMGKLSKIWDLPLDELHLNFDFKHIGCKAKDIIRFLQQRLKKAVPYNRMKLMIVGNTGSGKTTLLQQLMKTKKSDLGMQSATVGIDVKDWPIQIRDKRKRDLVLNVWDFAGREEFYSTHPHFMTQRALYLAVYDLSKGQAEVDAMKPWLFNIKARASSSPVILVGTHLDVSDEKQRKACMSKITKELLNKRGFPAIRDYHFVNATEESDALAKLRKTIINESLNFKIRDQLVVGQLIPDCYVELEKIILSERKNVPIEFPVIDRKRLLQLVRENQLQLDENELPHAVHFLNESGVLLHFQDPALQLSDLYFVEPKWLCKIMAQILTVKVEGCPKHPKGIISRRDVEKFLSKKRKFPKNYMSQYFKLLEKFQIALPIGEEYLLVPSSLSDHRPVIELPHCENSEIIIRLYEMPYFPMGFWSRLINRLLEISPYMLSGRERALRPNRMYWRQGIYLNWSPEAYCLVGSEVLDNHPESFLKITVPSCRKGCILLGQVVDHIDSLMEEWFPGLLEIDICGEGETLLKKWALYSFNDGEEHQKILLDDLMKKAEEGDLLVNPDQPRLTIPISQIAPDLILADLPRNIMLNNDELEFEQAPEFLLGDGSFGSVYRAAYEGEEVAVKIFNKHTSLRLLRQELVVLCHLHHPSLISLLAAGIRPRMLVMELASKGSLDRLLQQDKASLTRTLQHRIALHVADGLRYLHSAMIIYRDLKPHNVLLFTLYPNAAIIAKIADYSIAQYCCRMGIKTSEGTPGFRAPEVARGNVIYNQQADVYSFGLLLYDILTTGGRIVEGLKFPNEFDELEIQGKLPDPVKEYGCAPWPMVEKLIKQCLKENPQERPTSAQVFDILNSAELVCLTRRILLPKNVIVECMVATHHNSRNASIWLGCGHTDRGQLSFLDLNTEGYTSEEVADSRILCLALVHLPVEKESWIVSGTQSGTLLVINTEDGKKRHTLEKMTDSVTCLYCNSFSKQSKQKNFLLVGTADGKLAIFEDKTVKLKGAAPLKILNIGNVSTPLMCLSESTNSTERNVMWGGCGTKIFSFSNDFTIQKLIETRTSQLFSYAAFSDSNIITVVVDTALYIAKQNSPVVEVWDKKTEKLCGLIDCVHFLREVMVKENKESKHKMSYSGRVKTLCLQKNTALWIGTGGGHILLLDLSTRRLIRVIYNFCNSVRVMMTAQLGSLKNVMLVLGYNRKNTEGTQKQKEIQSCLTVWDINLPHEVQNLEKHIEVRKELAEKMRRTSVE
Assay info: LRRK2 G2019S TR-FRET biochemical kinase assay (LRRKtide substrate)
Details: Table A-2; 5 nM LRRK2, 134 μM ATP, 60 minute reaction, 23° C.
pIC50: −log10 of the molar value.
Result type: pIC50

Consider the reported pIC50 for these compounds:
Cc1nn(C(CF)CF)cc1Nc1ncc(C(F)(F)F)c(C2CC2)n1 | > 7.52
CC(=O)N1CCC(n2cc(Nc3ncc(C(F)(F)F)c(C4CC4)n3)c(C)n2)CC1 | 7.22 to 7.52

// query Note down pIC50 recorded for Cc1nn(C(C)(C)C#N)cc1Nc1ncc(C(F)(F)F)c(C2CCC2)n1
// result 7.22 to 7.52

// query Fill in pIC50 for record [2H]C([2H])([2H])n1cnc(C(C)(C)n2cc(Nc3ncc(C(F)(F)F)c(C4CC4)n3)c(C)n2)n1
// result > 7.52

----------
Recorded measurements of pIC50, one per entry
Test target: LRRK2 G2019S enzyme (Homo sapiens (Human), UniProt Q5S007, G2019S)
Assay info: LRRK2 G2019S TR-FRET biochemical kinase assay (LRRKtide substrate)
Details: Table A-2; 5 nM LRRK2, 134 μM ATP, 60 minute reaction, 23° C.
pIC50: −log10 of the molar value.

Examples with their reported pIC50 follow.
CC(C)(C#N)n1cc(Nc2ncc(C(F)(F)F)c(C3CC3)n2)c(Cl)n1 | 7.22 to 7.52
Cc1nn(S(C)(=O)=O)cc1Nc1ncc(C(F)(F)F)c(C2CC2)n1 | > 7.52
Cc1nn(C(C)(C)C#N)cc1Nc1ncc(C(F)(F)F)c(-c2cnn(C)c2)n1 | 7.22 to 7.52
Cc1nn(C(C)(C)C#N)cc1Nc1ncc(C(F)(F)F)c(C2CC2)n1 | > 7.52

Now take the following compound into account.
// query Tell me its pIC50 given CC(C)(O)Cn1ncc(Nc2ncc(C(F)(F)F)c(C3CC3)n2)c1Cl as the entry.
// result < 7.22

----------
Quick list: IC50 per entry.
Test target: LRRK2 G2019S enzyme (Homo sapiens (Human), UniProt Q5S007, G2019S)
Assay info: LRRK2 G2019S TR-FRET biochemical kinase assay (LRRKtide substrate)
Details: Table A-2; 5 nM LRRK2, 134 μM ATP, 60 minute reaction, 23° C.

Some molecules with recorded IC50:
Cc1nn(C(F)(F)c2nc[nH]n2)cc1Nc1ncc(C(F)(F)F)c(C2CC2)n1 | < 30 nM
CC1(O)CCCC1n1ncc(Nc2ncc(C(F)(F)F)c(C3CC3)n2)c1Cl (single isomer, unassigned) [Compound A-50] | < 30 nM

// query Consider the molecule Cc1nn([C@H]2CCn3ccnc32)cc1Nc1ncc(C(F)(F)F)c(C2CC2)n1 (single isomer, unassigned) . State its measured IC50.
// result < 30 nM

// query # return recorded IC50 for entry FCC(CF)n1cc(Nc2ncc(C(F)(F)F)c(C3CC3)n2)c(Cl)n1
// result < 30 nM

// query Name the recorded IC50 of the molecule listed here: Cc1nn(C(F)(F)C(N)=O)cc1Nc1ncc(C(F)(F)F)c(C2CC2)n1
// result < 30 nM

// query Indicate the recorded IC50 value for this molecule: Cc1nn(C(C)(C)C#N)cc1Nc1ncc(Cl)c(C2CCC2)n1
// result > 60 nM

// query Using known records, supply IC50 for Cc1nn(C(C)(C)c2cnn(C)n2)cc1Nc1ncc(C(F)(F)F)c(C2CC2)n1
// result < 30 nM

// query # return recorded IC50 for input Cc1nn(C(C)(C)c2ccnn2C)cc1Nc1ncc(Cl)c(C2CC2)n1
// result > 60 nM

// query Tell me its IC50 given Cc1c(Nc2ncc(C(F)(F)F)c(C3CC3)n2)cnn1[C@@H]1CCc2cn[nH]c21 as the entry.
// result < 30 nM

// query Consider the molecule Cc1c(Nc2ncc(C(F)(F)F)c(C3CC3)n2)cnn1C(CF)CF and give its recorded IC50.
// result < 30 nM

// query Please indicate IC50 recorded for Cc1nn(C(F)(F)c2ncn(C)n2)cc1Nc1ncc(C(F)(F)F)c(C2CC2)n1
// result < 30 nM

// query Return the recorded IC50 value; entry: Cc1nn(C(C)(C)c2ccn[nH]2)cc1Nc1ncc(C(F)(F)F)c(C2CC2)n1
// result < 30 nM

// query Quickly give me recorded IC50 for Cc1nn(C2(c3ncnn3C)CCC2)cc1Nc1ncc(C(F)(F)F)c(C2CC2)n1
// result > 60 nM

// query Look up and report measured IC50 for this entry: FC(F)(F)c1cnc(Nc2cnn(CC3(CN4CCOCC4)CC3)c2Cl)nc1C1CC1
// result 30 to 60 nM

// query # return recorded IC50 for entry Cc1c(Nc2ncc(Cl)c(C3CC3)n2)cnn1C(CF)CF
// result < 30 nM

// query Write down IC50 measured for item FC(F)(F)c1cnc(Nc2cnn([C@@H]3CN(C4COC4)CCC3(F)F)c2Cl)nc1C1CC1 (single isomer, unassigned)
// result < 30 nM

----------
Test target: LRRK2 G2019S enzyme (Homo sapiens (Human), UniProt Q5S007, G2019S)
Assay info: LRRK2 G2019S TR-FRET biochemical kinase assay (LRRKtide substrate)
Details: Table A-2; 5 nM LRRK2, 134 μM ATP, 60 minute reaction, 23° C.
pIC50: −log10 of the molar value.
Reported pIC50 values are given for each entry in this list.

Cc1nn(CC(C)(C)O)cc1Nc1ncc(C(F)(F)F)c(C2CC2)n1 [Compound A-19] | 7.22 to 7.52
Cc1nn([C@]2(C)CCNC2=O)cc1Nc1ncc(C(F)(F)F)c(C2CC2)n1 [Compounds A-95] | > 7.52

// query Supply recorded pIC50 for Cc1nn(CCF)cc1Nc1ncc(C(F)(F)F)c(C2CC2)n1 [Compound A-31] here.
// result > 7.52

// query Answer with the recorded pIC50 for the compound listed here: Cc1nn(C(C)(C)c2nc[nH]n2)cc1Nc1ncc(C(F)(F)F)c(C2CC2)n1 [Compound A-58]
// result > 7.52

----------
Test target: LRRK2 G2019S enzyme (Homo sapiens (Human), UniProt Q5S007, G2019S)
Assay info: LRRK2 G2019S TR-FRET biochemical kinase assay (LRRKtide substrate)
Details: Table D-4; 5 nM LRRK2, 134 μM ATP, 60 minute reaction, 23° C.
pIC50: −log10 of the molar value.
Result type: pIC50

Some solved cases for reference:
CCNc1nc(Nc2cn(C3CCn4ccnc43)nc2Cl)ncc1C(F)(F)F [Compound D-62] | < 7.22
CSc1nc(Nc2cn(C(C)(C)C#N)nc2C)ncc1C(F)(F)F [Compound D-46] | 7.22 to 7.52
CCNc1nc(Nc2cnn([C@H]3C[C@H](n4ncnc4C(F)(F)F)C3)c2C)ncc1C(F)(F)F [Compound D-61] | > 7.52
CNc1nc(Nc2cn([C@H]3C[C@H](c4nncs4)C3)nc2C)ncc1C(F)(F)F [Compound D-167] | > 7.52
CNc1nc(Nc2cnn([C@H]3CCC(n4nccn4)C3)c2C)ncc1C(F)(F)F (stereo partly drawn) [Compounds D-134] | > 7.52

// query Read off the recorded pIC50 for CNc1nc(Nc2cnn([C@H]3C[C@@H](n4cc(F)cn4)C3)c2C)ncc1C(F)(F)F [Compound D-165]
// result > 7.52

// query Please report pIC50 for the following compound: CNc1nc(Nc2cn(C3CCCn4ccnc43)nc2C)ncc1C(F)(F)F [Compound D-34]
// result > 7.52

// query Quickly give me recorded pIC50 for CNc1nc(Nc2cnn(CC3(COC)CC3)c2Cl)ncc1C(F)(F)F [Compound D-12]
// result > 7.52

----------
Measured pIC50 of individual entries
Test target: LRRK2 G2019S enzyme (Homo sapiens (Human), UniProt Q5S007, G2019S)
Assay info: LRRK2 G2019S TR-FRET biochemical kinase assay (LRRKtide substrate)
Details: Table A-2; 5 nM LRRK2, 134 μM ATP, 60 minute reaction, 23° C.
pIC50: −log10 of the molar value.

Below: 3 compounds and their reported pIC50.
Cn1ncnc1C(C)(C)n1cc(Nc2ncc(C(F)(F)F)c(C3CC3)n2)c(Cl)n1 [Compound A-37] | < 7.22
Cc1nn(C2(c3ncn(C)n3)CCC2)cc1Nc1ncc(C(F)(F)F)c(C2CC2)n1 [Compound A-41] | > 7.52
FC(F)(F)c1cnc(Nc2cnn([C@H]3CN(C4COC4)CCC3(F)F)c2Cl)nc1C1CC1 (single isomer, unassigned) [Compound A-64] | 7.22 to 7.52

// query Look up pIC50 of CCn1cnc(C(C)(C)n2cc(Nc3ncc(C(F)(F)F)c(C4CC4)n3)c(C)n2)n1 [Compound A-51] and report it.
// result > 7.52

// query // fetch pIC50 given entry Cc1nn(C(C)(C)c2ccn(C)n2)cc1Nc1ncc(Cl)c(C2CC2)n1 [Compound A-34]
// result > 7.52
